ECL signal/blank ratio (read-out not given) values by entry
# study_target: T1, rHuman IGF-1 sR, CF (R&D Systems Cat#391-GR) (human, UniProt P08069 31-932)
# T1 construct: Bought soluble receptor; also called insulin-like growth factor-1 soluble receptor
# measurement_notes: ECL multispot (MSD) assay, antigen spotted on plate, 20 nM Fab;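 note: purified Fab bound to plate-spotted antigen for 1 h at 20 °C, labelled detection antibody added, ratio of antigen ECL signal to same-well blank, ratio ≥4 counted as binder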
Give your answer as a number; write no unit.

Below, 2 binders whose answers are already recorded.
binder	reported
Fab VH3-23_IGHD2-21*01>3_IGHJ6*01 H100E/S108P/Y113G Y60A & V2-13_IGLJ2*01 (Fab, V domains shown, Tested as a Fab made in E. coli; also called EPG Y60A) VH: EVQLLESGGGLVQPGGSLRLSCAASGFTFSSYAMSWVRQAPGKGLEWVSSISGSGGSTYAADSVKGRFTISRDNSKNTLYLQMNSLRAEDTAVYYCAKEEIVVVIAIPYYYYGYGMDVWGQGTLVTVSS VL: SSELTQDPAVSVALGQTVRITCQGDSLRSYYASWYQQKPGQAPVLVIYGKNNRPSGIPDRFSGSSSGNTASLTITGAQAEDEADYYCNSRDSSGNHLVVFGGGTKLTVL	1.2
Fab VH3-23_IGHD2-21*01>3_IGHJ6*01 H100E/S108P/Y113G A61T & V2-13_IGLJ2*01 (Fab, V domains shown, Tested as a Fab made in E. coli; also called EPG A61T) VH: EVQLLESGGGLVQPGGSLRLSCAASGFTFSSYAMSWVRQAPGKGLEWVSSISGSGGSTYYTDSVKGRFTISRDNSKNTLYLQMNSLRAEDTAVYYCAKEEIVVVIAIPYYYYGYGMDVWGQGTLVTVSS VL: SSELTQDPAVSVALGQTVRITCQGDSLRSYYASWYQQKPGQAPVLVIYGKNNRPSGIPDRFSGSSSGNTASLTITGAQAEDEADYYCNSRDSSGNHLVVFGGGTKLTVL	1.6

Turning now to a further record.
Documented ECL signal/blank ratio (read-out not given) of Fab VH3-23_IGHD2-21*01>3_IGHJ6*01 H100E/S108P/Y113G T58A & V2-13_IGLJ2*01 (Fab, V domains shown, Tested as a Fab made in E. coli; also called EPG T58A) VH: EVQLLESGGGLVQPGGSLRLSCAASGFTFSSYAMSWVRQAPGKGLEWVSSISGSGGSAYYADSVKGRFTISRDNSKNTLYLQMNSLRAEDTAVYYCAKEEIVVVIAIPYYYYGYGMDVWGQGTLVTVSS VL: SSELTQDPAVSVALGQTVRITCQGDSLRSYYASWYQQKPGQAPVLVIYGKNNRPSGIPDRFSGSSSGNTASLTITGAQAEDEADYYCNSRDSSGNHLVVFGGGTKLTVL : 1.2

Origin of values: patent US20120316071A1
